Reported protein stability index is given for each of the following variants.
B1: ZNF263 (parent)
chain: PEASHLRFRRFRFQEAAGPREALS

Variants of: B1
Assay: protein stability index of a GFP-peptide fusion (GPS, HEK-293T) (PSI 1-6); higher = more stable;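 note: lentivirally expressed fusions sorted by FACS into six bins by GFP to DsRed ratio, PSI derived from sequencing read proportions per bin multiplied by bin number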
Conditions: c terminus: a fixed tail appended
// no unit, no text: just the number

residue-codes	protein stability index
PEASHLRFRRFRFQEAASPREALS [G18S]	2.96
PEGSHLRFRRFRFQEAAGPREALS [A3G]	2.95
PEASHLRFRRFRFQEAAGPREGLS [A22G]	2.98

Here is another variant to look at.
Provide measured protein stability index value, entry: PEASHPRFRRFRFQEAAGPREALS [L6P]
3.03
